- STUDY_TARGET: PD-L1 (Homo sapiens (Human))
- METHOD_NOTES: PD-L1 surface levels on HEK293T STING reporter cells, high PD-L1
- Assay type: cell-based
pIC50: −log10 of the molar value.
TEST_READOUT: pIC50

INSERT INTO measurements (test_smiles, test_readout, data_value) VALUES
  ('CCn1nc(C)cc1C(=O)Nc1nc2cc(C(N)=O)cc(OC)c2n1C/C=C/Cn1c(NC(=O)c2cc(C)nn2CC)nc2cc(C(N)=O)cc(OCCCNC(=O)[C@H](CC(=O)O)NC(=O)[C@H](CC(=O)O)NC(=O)[C@H](CCCCN)NC(=O)[C@H](CC(=O)O)NC(=O)CCCN3CCc4c(nc(C(=O)Nc5cccc(-c6cccc(NC(=O)c7nc8c(n7C)CCN(CCCC(=O)O)C8)c6Cl)c5Cl)n4C)C3)c21', 'pIC50', '> 7.30'),
  ('CCn1nc(C)cc1C(=O)Nc1nc2cc(C(N)=O)cc(OC)c2n1C/C=C/Cn1c(NC(=O)c2cc(C)nn2CC)nc2cc(C(N)=O)cc(OCCCNC(=O)CCNC(=O)OCc3ccc(NC(=O)[C@H](CCCNC(N)=O)NC(=O)[C@@H](NC(=O)CCCN4CCc5c(nc(C(=O)Nc6cccc(-c7cccc(NC(=O)c8nc9c(n8C)CCN(CCCC(=O)O)C9)c7Cl)c6Cl)n5C)C4)C(C)C)cc3)c21', 'pIC50', '> 7.30');

###

- STUDY_TARGET: PD-L1 (Homo sapiens (Human), UniProt Q9NZQ7)
- Sequence (Q9NZQ7 19-290): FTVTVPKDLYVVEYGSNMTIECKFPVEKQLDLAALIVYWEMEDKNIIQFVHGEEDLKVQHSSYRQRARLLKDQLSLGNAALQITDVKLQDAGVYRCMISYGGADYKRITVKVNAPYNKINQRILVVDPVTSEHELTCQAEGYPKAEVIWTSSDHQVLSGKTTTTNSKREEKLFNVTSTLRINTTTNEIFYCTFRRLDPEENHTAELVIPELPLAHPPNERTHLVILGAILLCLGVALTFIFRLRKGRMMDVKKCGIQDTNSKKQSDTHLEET
- METHOD_NOTES: Indirect whole blood PD-L1 internalization assay
- Assay type: cell-based
- TEST_PARAMETERS: interferon γ, 18 hours, CD14+ gated
pIC50: −log10 of the molar value.
TEST_READOUT: pIC50

INSERT INTO measurements (test_smiles, study_target, test_readout, data_value) VALUES
  ('Cc1c(NC(=O)c2nc3c(n2C)CCN(C[C@@H](C)O)C3)cccc1-c1cccc(NC(=O)c2nc3c(n2C)CCN(C)C3)c1Cl', 'PD-L1 (Homo sapiens (Human), UniProt Q9NZQ7)', 'pIC50', '> 7.00'),
  ('Cc1c(Nc2nccc3cc(CN4CC[C@@H](O)C4)cnc23)cccc1-c1cccc(-c2nc3cc(CNCC(C)(C)C(=O)O)cc(C#N)c3o2)c1C', 'PD-L1 (Homo sapiens (Human), UniProt Q9NZQ7)', 'pIC50', '6.00 to 7.00'),
  ('Cc1c(-c2nc3cc(CN4CC[C@@H](C(=O)O)C4)cc(C#N)c3o2)cccc1-c1cccc(NC(=O)c2nc3c(n2C)CCN(C)C3)c1Cl', 'PD-L1 (Homo sapiens (Human), UniProt Q9NZQ7)', 'pIC50', '> 7.00'),
  ('Cc1c(-c2nc3c(C#N)cc(CN4CC[C@@H](O)C4)cn3n2)cccc1-c1cccc(-c2nc3cc(CN4CC[C@@H](C(=O)O)C4)cc(C#N)c3o2)c1C', 'PD-L1 (Homo sapiens (Human), UniProt Q9NZQ7)', 'pIC50', '6.00 to 7.00'),
  ('Cc1c(Nc2nccc3cc(CN4CC[C@H](C(=O)O)C4)cnc23)cccc1-c1nccc(Nc2nccc3cc(CN4CC[C@@H](O)C4)cnc23)c1C', 'PD-L1 (Homo sapiens (Human), UniProt Q9NZQ7)', 'pIC50', '6.00 to 7.00'),
  ('Cc1c(-c2nc3cc(CN4CC[C@@H](C(=O)O)C4)cc(C#N)c3o2)cccc1-c1cccc(-n2cc3c(n2)CN(C(C)C)CC3)c1Cl', 'PD-L1 (Homo sapiens (Human), UniProt Q9NZQ7)', 'pIC50', '6.00 to 7.00');

###

- Tested on: IRF3 activation in PD-L1 high HEK293T STING reporter cell line
- METHOD_NOTES: IRF3 activation in HEK293T STING reporter cells, high PD-L1
- Type: cell-based, human
- TEST_PARAMETERS: high PD-L1 cells, 20 hours; read-out: IRF Activation EC50 (nM), High PD-L1
- Description: HEK293T STING reporter cell line was purchased from Invivogen and expressed low level of PD-L1. This cell line was then engineered at Incyte Research Institute to overexpress human PD-L1. […] At the end of the incubation, the culture supernatants were carefully removed from each well, and the amount of IRF3 activation was determined by adding Quanti-Blue substrate in accordance with the manufacturer's protocol. […]
TEST_READOUT: EC50

INSERT INTO measurements (test_smiles, data_value) VALUES
  ('CCn1nc(C)cc1C(=O)Nc1nc2cc(C(N)=O)cc(OC)c2n1C/C=C/Cn1c(NC(=O)c2cc(C)nn2CC)nc2cc(C(N)=O)cc(OCCCNC(=O)CCNC(=O)OCCSSC[C@H](NC(=O)[C@H](CC(=O)O)NC(=O)[C@H](CC(=O)O)NC(=O)[C@H](CCCNC(=N)N)NC(=O)[C@H](CC(=O)O)NC(=O)CCCN3CCc4c(nc(C(=O)Nc5cccc(-c6cccc(NC(=O)c7nc8c(n7C)CCN(CCCC(=O)O)C8)c6Cl)c5Cl)n4C)C3)C(=O)O)c21', '< 50 nM'),
  ('CCn1nc(C)cc1C(=O)Nc1nc2cc(C(N)=O)cc(OC)c2n1C/C=C/Cn1c(NC(=O)c2cc(C)nn2CC)nc2cc(C(N)=O)cc(OCCCNC(=O)[C@H](CCC(=O)O)NC(=O)[C@H](CCC(=O)O)NC(=O)[C@H](CCCNC(=N)N)NC(=O)[C@H](CCC(=O)O)NC(=O)CCCN3CCc4c(nc(C(=O)Nc5cccc(-c6cccc(NC(=O)c7nc8c(n7C)CCN(CCCC(=O)O)C8)c6Cl)c5Cl)n4C)C3)c21', '< 50 nM');

###

IC50 values, listed per item
- STUDY_TARGET: PD-L1 (Homo sapiens (Human), UniProt Q9NZQ7)
- METHOD_NOTES: PD-L1 surface levels on HEK293T STING reporter cells, high PD-L1
- Assay type: cell-based
TEST_READOUT: IC50

INSERT INTO results (test_smiles, study_target, data_value) VALUES
  ('CCn1nc(C)cc1C(=O)Nc1nc2cc(C(N)=O)cc(OC)c2n1C/C=C/Cn1c(NC(=O)c2cc(C)nn2CC)nc2cc(C(N)=O)cc(OCCCNC(=O)[C@H](CC(=O)O)NC(=O)[C@H](CC(=O)O)NC(=O)[C@H](CC(=O)O)NC(=O)[C@H](CC(=O)O)NC(=O)[C@H](CC(=O)O)NC(=O)[C@H](CC(=O)O)NC(=O)[C@H](CC(=O)O)NC(=O)CCCN3CCc4c(nc(C(=O)Nc5cccc(-c6cccc(NC(=O)c7nc8c(n7C)CCN(CCCC(=O)O)C8)c6Cl)c5Cl)n4C)C3)c21', 'PD-L1 (Homo sapiens (Human), UniProt Q9NZQ7)', '< 0.05 µM'),
  ('CCn1nc(C)cc1C(=O)Nc1nc2cc(C(N)=O)cc(OCCCNC(=O)[C@H](CC(=O)O)NC(=O)[C@H](CC(=O)O)NC(=O)[C@H](CCCNC(N)=O)NC(=O)[C@H](CC(=O)O)NC(=O)CCCN3CCc4c(nc(C(=O)Nc5cccc(-c6cccc(NC(=O)c7nc8c(n7C)CCN(CCCC(=O)O)C8)c6Cl)c5Cl)n4C)C3)c2n1C/C=C/Cn1c2nc(-c3cc(C)nn3CC)ncc2c2cc(C(N)=O)cc(OC)c21', 'PD-L1 (Homo sapiens (Human), UniProt Q9NZQ7)', '< 0.05 µM');

###

- Test system: IFNβ production in CD11b+ monocytes
- METHOD_NOTES: IFN-beta induction in CD11b+ monocytes from lung cancer pleural effusions
- Type: cell-based, human
- TEST_PARAMETERS: Homo sapiens; CD11b+ monocyte cultures, lung cancer pleural effusion, 20 hours; read-out: EC50 for IFNβ induction, Cancer patient
- Experimental: CD11b^+ cells were isolated from healthy PBMCs as well as Pleural effusion samples using Miltenyi isolation kit according to manufacturer's protocol. Cells were seeded in 96 well plates at the density of 300,000 cells/wells, and then treated with various concentrations of compounds for 20 hours. After 20 hours, IFN-beta secretion levels were evaluated in the culture supernatants by MSD singleplex assay. EC50 values were calculated using Prism software. […]
pEC50: −log10 of the molar value.
pEC50 values, listed per item
TEST_READOUT: pEC50

INSERT INTO results (compound, test_readout, data_value) VALUES
  ('CCn1nc(C)cc1C(=O)Nc1nc2cc(C(N)=O)cc(OCCCOC(=O)NCCC(=O)O)c2n1C/C=C/Cn1c2nc(-c3cc(C)nn3CC)ncc2c2cc(C(N)=O)cc(OCCCOC)c21 [Example S48]', 'pEC50', 7.42),
  ('CCn1nc(C)cc1C(=O)Nc1nc2cc(C(N)=O)cc(OCCCNC(=O)OCC(=O)O)c2n1C/C=C/Cn1c2nc(-c3cc(C)nn3CC)ncc2c2cc(C(N)=O)cc(OCCCOC)c21 [Example S45]', 'pEC50', 7.25);
